- target-system: Adenosylhomocysteinase (Plasmodium falciparum 3D7, UniProt P50250)
- Sequence (P50250 whole entry): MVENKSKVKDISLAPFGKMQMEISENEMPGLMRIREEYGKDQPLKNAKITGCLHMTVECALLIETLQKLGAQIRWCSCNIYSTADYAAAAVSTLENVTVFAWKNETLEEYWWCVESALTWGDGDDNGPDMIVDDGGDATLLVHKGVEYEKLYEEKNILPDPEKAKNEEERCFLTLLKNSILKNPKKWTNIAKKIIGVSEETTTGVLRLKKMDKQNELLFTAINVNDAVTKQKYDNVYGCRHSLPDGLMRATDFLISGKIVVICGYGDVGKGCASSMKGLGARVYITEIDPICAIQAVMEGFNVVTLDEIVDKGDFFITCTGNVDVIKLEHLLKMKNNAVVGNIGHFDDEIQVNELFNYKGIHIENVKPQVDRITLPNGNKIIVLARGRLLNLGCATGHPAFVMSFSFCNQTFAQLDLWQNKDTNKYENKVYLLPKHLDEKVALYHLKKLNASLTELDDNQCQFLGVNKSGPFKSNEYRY
quantity-kind: Ki (nM)

entry-smiles	quantity-kind	endpoint-result
Nc1ncnc2c1ncn2[C@@H]1C[C@H](O)[C@@H](O)[C@H]1O	Ki	180
Nc1nc(F)nc2c1ncn2[C@@H]1C[C@H](O)[C@@H](O)[C@H]1O	Ki	480

---

Catalogue of compounds with associated EC50
- System: Plasmodium falciparum
- experiment-description: Inhibitory activity against Plasmodium falciparum
- Format: functional, organism-based
quantity-kind: EC50 (µM)

compound	quantity-kind	endpoint-result
Nc1nc(F)nc2c1ncn2[C@@H]1C[C@H](O)[C@@H](O)[C@H]1O	EC50	7.4
Nc1ncnc2c1ncn2[C@@H]1C[C@H](O)[C@@H](O)[C@H]1O [NORARISTEROMYCIN]	EC50	7.4
